Origin of measurements: patent US10633342B2

target desc: UniProtKB P14902
test details: HEK Human IDO-1 inhibition assay (kynurenine, Ehrlich reagent, absorbance 490 nm)
conditions: human IDO1/HEK293 cells, 20 hours incubation; read-out: HEK Human IDO-1 Bio Activity (IDO IC50)
Hi there, I'd appreciate the recorded IC50 for every entry that follows.

Q: Query: IC50; subject: O=C(Cc1ccc(F)cc1)NCC1CCN(c2ccnc3ccc(F)cc23)CC1 [Example 2]
Result: < 100 nM

Q: Same question, C[C@@H](NC(=O)[C@H]1CC[C@@H](O)CC1)[C@H]1CC[C@@H](c2ccnc3ccc(F)cc32)CC1 [Example 21] this time
Result: < 1000 nM

Attention now shifts to the item below.
Q: Query: IC50; subject: C[C@@H](NC(=O)C1CCCCC1)[C@H]1CC[C@@H](c2ccnc3ccc(F)cc32)CC1 [Example 15]
Result: < 100 nM

====

target desc: human IDO1 (Homo sapiens, UniProt P14902)
Sequence (P14902 whole entry): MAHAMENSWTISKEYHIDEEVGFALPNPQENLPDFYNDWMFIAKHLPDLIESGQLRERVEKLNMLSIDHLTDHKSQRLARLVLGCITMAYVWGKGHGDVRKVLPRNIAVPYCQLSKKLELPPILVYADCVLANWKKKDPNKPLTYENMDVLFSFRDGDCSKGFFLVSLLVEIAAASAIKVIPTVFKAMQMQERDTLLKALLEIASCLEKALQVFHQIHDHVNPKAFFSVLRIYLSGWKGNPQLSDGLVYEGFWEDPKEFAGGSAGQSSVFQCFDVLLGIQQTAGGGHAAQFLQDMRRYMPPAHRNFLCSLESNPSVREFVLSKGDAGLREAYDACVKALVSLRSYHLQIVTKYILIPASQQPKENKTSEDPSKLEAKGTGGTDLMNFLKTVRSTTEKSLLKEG
test details: HEK Human IDO-1 inhibition assay (kynurenine, Ehrlich reagent, absorbance 490 nm)
conditions: human IDO1/HEK293 cells, 20 hours incubation; read-out: HEK Human IDO-1 Bio Activity (IDO IC50)
pIC50: −log10 of the molar value.
property label: pIC50

These recorded examples may help you get a feel for the data.
Q: // fetch human IDO1 (Homo sapiens, UniProt P14902) pIC50 for C[C@H](C(=O)N[C@H](C)[C@H]1CC[C@@H](c2ccnc3ccc(F)cc32)CC1)c1ccccc1
Result: > 6.00

Q: Same question, C[C@@H](NC(=O)Cc1cccc(Cl)c1)[C@H]1CC[C@@H](c2ccnc3ccc(F)cc32)CC1 this time
Result: > 6.00

Q: Same question, C[C@@H](NC(=O)Cc1ccccc1Cl)[C@H]1CC[C@@H](c2ccnc3ccc(F)cc32)CC1 this time
Result: > 6.00

Record pIC50 for all entries; do not skip any.
1. C[C@@H](NC(=O)C1(c2ccc(Cl)cc2)CCC1)[C@H]1CC[C@@H](c2ccnc3ccc(F)cc32)CC1
2. CO[C@@H](C(=O)N[C@H](C)[C@H]1CC[C@@H](c2ccnc3ccc(F)cc32)CC1)c1ccccc1

Result:
1. > 7.00
2. > 7.00

Record pIC50 for all entries; do not skip any.
1. C[C@@H](NC(=O)[C@H]1CC[C@H](O)CC1)[C@H]1CC[C@@H](c2ccnc3ccc(F)cc32)CC1
2. C[C@@H](NC(=O)[C@H]1C[C@H](F)C1)[C@H]1CC[C@@H](c2ccnc3ccc(F)cc32)CC1

Result:
["> 6.00", "> 6.00"]

====

target desc: human IDO1 (Homo sapiens, UniProt P14902)
test details: HEK Human IDO-1 inhibition assay (kynurenine, Ehrlich reagent, absorbance 490 nm)
conditions: human IDO1/HEK293 cells, 20 hours incubation; read-out: HEK Human IDO-1 Bio Activity (IDO IC50)
property label: IC50

Q: Query: IC50; subject: C[C@@H](NC(=O)C12CCC(Cl)(CC1)CC2)[C@H]1CC[C@@H](c2ccnc3ccc(F)cc32)CC1
Result: < 100 nM

Q: Same question, C[C@@H](C(=O)N[C@H](C)[C@H]1CC[C@@H](c2ccnc3ccc(F)cc32)CC1)c1ccccc1 this time
Result: < 1000 nM

Q: Same question, C[C@@H](NC(=O)Cc1ccc(Cl)cc1)[C@H]1CC[C@@H](c2ccnc3ccc(F)cc32)CC1 this time
Result: < 1000 nM

Attention now shifts to the item below.
Q: Query: IC50; subject: C[C@@H](NC(=O)C1CCC1)[C@H]1CC[C@@H](c2ccnc3ccc(F)cc32)CC1
Result: < 1000 nM

====

target desc: human IDO1 (Homo sapiens)
test details: HEK Human IDO-1 inhibition assay (kynurenine, Ehrlich reagent, absorbance 490 nm)
conditions: human IDO1/HEK293 cells, 20 hours incubation; read-out: HEK Human IDO-1 Bio Activity (IDO IC50)
Hi there, I'd appreciate the recorded IC50 for every entry that follows.

These recorded examples may help you get a feel for the data.
Q: Query: IC50; subject: Cc1ccc(CC(=O)NCC2CCN(c3ccnc4ccc(F)cc34)CC2)cc1
Result: < 100 nM

Q: Same question, COc1ccc(CC(=O)N[C@H](C)[C@H]2CC[C@@H](c3ccnc4ccc(F)cc43)CC2)cc1 this time
Result: < 1000 nM

Q: Same question, C[C@@H](NC(=O)Cc1ccccc1F)[C@H]1CC[C@@H](c2ccnc3ccc(F)cc32)CC1 this time
Result: < 1000 nM

Attention now shifts to the item below.
Q: Query: IC50; subject: C[C@@H](NC(=O)C1CC(F)(F)C1)[C@H]1CC[C@@H](c2ccnc3ccc(F)cc32)CC1
Result: < 1000 nM
